target.or.system: hCA VI (Homo sapiens)
Construct: gene CA6; recombinant, obtained in-house
Sequence (P23280 18-308): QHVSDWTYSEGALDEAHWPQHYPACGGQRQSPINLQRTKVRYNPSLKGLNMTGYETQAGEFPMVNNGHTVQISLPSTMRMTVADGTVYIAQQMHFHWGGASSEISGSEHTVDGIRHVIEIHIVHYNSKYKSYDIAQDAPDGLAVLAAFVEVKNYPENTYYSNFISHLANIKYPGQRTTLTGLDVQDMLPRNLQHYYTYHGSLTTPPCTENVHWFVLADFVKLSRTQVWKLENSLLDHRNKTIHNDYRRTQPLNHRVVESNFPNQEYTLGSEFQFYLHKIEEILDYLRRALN
protocol.notes: stopped-flow CO2 hydration
Assay type: biochemical
run.parameters: read-out: KI (μM)^a^,^b / hCA VI
From the text: stopped-flow CO2 hydration on hCA VI
parameter: Ki (µM)

Illustrative cases are given below, each with its answer.
NS(=O)(=O)c1ccccc1 [compound 2, benzenesulphonamide] :: 0.097
NC(=O)c1ccccc1 [compound 7, carboxamide 7] :: 82.6
NNC(=O)c1ccccc1 [compound 8, hydrazide 8] :: 63.5

A = CONS(=O)(=O)c1ccccc1 [compound 5, N-methoxysulphonamide 5]
B = CONC(=O)c1ccccc1 [compound 10, methylated hydroxamate 10]
[in] I'm curious, which of these has a smaller Ki number: A or B ? Your choice should be expressed through its label.
[out] A
(A: 27 µM, B: 89.9 µM)

====

target.or.system: hCA XII (Homo sapiens)
Construct: gene CA12; recombinant, obtained in-house
Sequence (O43570 30-289 limits assumed): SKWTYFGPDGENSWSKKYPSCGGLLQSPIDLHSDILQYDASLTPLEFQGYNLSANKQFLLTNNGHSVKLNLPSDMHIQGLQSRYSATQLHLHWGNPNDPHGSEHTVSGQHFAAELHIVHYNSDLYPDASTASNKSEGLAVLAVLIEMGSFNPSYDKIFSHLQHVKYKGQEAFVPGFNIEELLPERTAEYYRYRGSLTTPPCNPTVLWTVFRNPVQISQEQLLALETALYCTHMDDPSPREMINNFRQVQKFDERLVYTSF
protocol.notes: stopped-flow CO2 hydration
Format: biochemical
run.parameters: read-out: hCA XII
parameter: Ki (µM)
Numbers only here, please. The scale is µM.

[in] // lookup Ki for NC(=O)Oc1ccccc1 [7a, carbamate 7a]
[out] 2.81

====

target.or.system: hCA VII (Homo sapiens, UniProt P43166)
Construct: gene CA7; recombinant, obtained in-house
Sequence (P43166 whole entry): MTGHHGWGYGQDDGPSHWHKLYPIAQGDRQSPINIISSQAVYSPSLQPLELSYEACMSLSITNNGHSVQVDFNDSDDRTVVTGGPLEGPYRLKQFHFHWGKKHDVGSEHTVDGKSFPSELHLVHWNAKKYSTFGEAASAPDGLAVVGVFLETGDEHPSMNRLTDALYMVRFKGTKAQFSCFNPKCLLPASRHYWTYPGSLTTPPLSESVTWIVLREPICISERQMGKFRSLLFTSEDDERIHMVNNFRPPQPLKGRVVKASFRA
protocol.notes: stopped-flow CO2 hydration
Type: biochemical
run.parameters: read-out: KI (μM)^a^,^b / hCA VII
parameter: Ki (µM)

Illustrative cases are given below, each with its answer.
O=S(=O)(NO)c1ccccc1 [compound 4, N-hydroxysulphonamide 4] :: 8.73
NNC(=O)c1ccccc1 [compound 8, hydrazide 8] :: 76.7
O=C(NO)c1ccccc1 [compound 9, hydroxamic acid 9] :: 70.7

a = NC(=O)c1ccccc1 [compound 7, carboxamide 7]
b = NNS(=O)(=O)c1ccccc1 [compound 3, N-amino sulphonamide 3]
[in] I'm curious, which of these has a smaller Ki number: a or b ? Your choice should be expressed through its label.
[out] b

====

target.or.system: hCA IX (Homo sapiens)
Construct: gene CA9; recombinant, obtained in-house
protocol.notes: stopped-flow CO2 hydration
Assay type: biochemical
run.parameters: read-out: KI (μM)^a^,^b / hCA IX^c
From the text: stopped-flow CO2 hydration on hCA IX
parameter: Ki (µM)

NNC(=O)c1ccccc1 [compound 8, hydrazide 8] :: 48.4
CONS(=O)(=O)c1ccccc1 [compound 5, N-methoxysulphonamide 5] :: 64.3
O=C(O)c1ccccc1 [compound 6, benzoic acid] :: 66.5

A = NC(=O)c1ccccc1 [compound 7, carboxamide 7]
B = NNS(=O)(=O)c1ccccc1 [compound 3, N-amino sulphonamide 3]
C = O=S(=O)(O)c1ccccc1 [compound 1, benzenesulphonic acid]
[in] Rank the 3 molecules: largest Ki first, smallest last. The labels, placed in the requested order, form the answer.
[out] B, C, A

====

target.or.system: hCA XIV (Homo sapiens)
Construct: gene CA14; recombinant, obtained in-house
Sequence (Q9ULX7 16-290 limits assumed): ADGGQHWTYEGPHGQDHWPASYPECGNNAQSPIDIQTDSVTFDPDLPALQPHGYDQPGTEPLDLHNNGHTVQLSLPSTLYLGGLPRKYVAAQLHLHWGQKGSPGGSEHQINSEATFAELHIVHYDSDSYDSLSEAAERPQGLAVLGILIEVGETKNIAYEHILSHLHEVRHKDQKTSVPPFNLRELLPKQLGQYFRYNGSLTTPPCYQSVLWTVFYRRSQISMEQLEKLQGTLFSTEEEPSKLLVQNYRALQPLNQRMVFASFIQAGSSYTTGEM
protocol.notes: stopped-flow CO2 hydration
Type: biochemical
run.parameters: read-out: KI (μM)^a^,^b / hCA XIV
parameter: Ki (µM)

Illustrative cases are given below, each with its answer.
O=C(NO)c1ccccc1 [compound 9, hydroxamic acid 9] :: 0.94
CONS(=O)(=O)c1ccccc1 [compound 5, N-methoxysulphonamide 5] :: 1.57
NNC(=O)c1ccccc1 [compound 8, hydrazide 8] :: 0.99
NC(=O)c1ccccc1 [compound 7, carboxamide 7] :: 27
O=C(O)c1ccccc1 :: 0.98

A = O=S(=O)(NO)c1ccccc1 [compound 4, N-hydroxysulphonamide 4]
B = NS(=O)(=O)c1ccccc1 [compound 2, benzenesulphonamide]
[in] Which is greater in Ki, the first item A or the second item B ? Your choice should be expressed through its label.
[out] A
(A: 1.66 µM, B: 0.092 µM)
